// data source = patent US10227350B2

Quick record: IC50, PI3Kβ (Homo sapiens (Human), UniProt P42338).
assayEndpoint: IC50 (nM)

Solved entries (count: 5):
Cc1nc2c(C(=O)O)cc(-c3ncnc4[nH]cnc34)cc2n1-c1ccnc2c(Cl)cccc12    2800
Cc1cc(-c2cc(C(N)=O)c3nc(C)n(-c4ccnc5c(Cl)cccc45)c3c2)ccn1    150
Cc1nc2c(-c3nnc[nH]3)cc(-c3cc(N)ncn3)cc2n1-c1ccnc2c(Cl)cccc12    270
Cc1nc2c(C(N)=O)cc(-c3ccncc3F)cc2n1-c1ccnc2c(Cl)cccc12    62
Cc1nnc(-c2cc(-c3ccnc(N)c3F)cc3c2nc(C)n3-c2ccnc3c(Cl)ccc(F)c23)[nH]1 (single isomer, unassigned) [Example 112]    5

(a) CCc1nc2c(-c3nnc[nH]3)cc(-c3ccnc(N)c3F)cc2n1-c1ccnc2c(F)ccc(F)c12 (single isomer, unassigned) [Example 109]
(b) CNc1cc(-c2cc(-c3nnc[nH]3)c3nc(C)n(-c4ccnc5c(F)ccc(F)c45)c3c2)c(F)cn1
(c) Cc1nc2c(C(N)=O)cc(-c3ccnc(N)c3)cc2n1-c1ccnc2c(Cl)ccc(F)c12
(d) Fc1nccc(-c2cc(-c3nnc[nH]3)c3ncn(-c4cc(N5CCNCC5)nc5ccccc45)c3c2)c1F
(e) Cc1cnc2c(Cl)cccc2c1-n1c(C)nc2c(-c3nnc[nH]3)cc(-c3ccnc(N)c3F)cc21
q: Number of compounds to sort: 5. Sort criterion: IC50, ascending. Quick reminder: the answer is the labels in the order asked.
a: e, d, c, b, a
(e: 3 nM, d: 10 nM, c: 23 nM, b: 120 nM, a: 2600 nM)

(1) CCCc1nc2c(-c3nnc[nH]3)cc(-c3ccnc(N)c3F)cc2n1-c1ccnc2c(F)cccc12
(2) CCc1nc2c(-c3nnc[nH]3)cc(-c3ccnc(N)c3F)cc2n1-c1ccnc2c(F)ccc(F)c12 [Example 95]
(3) CCc1nc2c(-c3nnc[nH]3)cc(-c3ccnc(N)c3)cc2n1-c1ccnc2cccc(F)c12
(4) Cc1nc2c(-c3nnc[nH]3)cc(-c3ccnc(C#N)c3)cc2n1-c1ccnc2cccc(F)c12 (single isomer, unassigned) [Example 132]
q: Could you please sort these 4 entries by IC50 from high to low? Submit the labels in the order that the ranking request calls for.
a: 4, 3, 1, 2

(1) Cc1nc2c(-c3nnc[nH]3)cc(-c3ccnc(N)c3F)cc2n1-c1c(Cl)cnc2c(F)cccc12 [Example 92]
(2) Cc1nc2c(-c3nnc[nH]3)cc(-c3ccnc(N)n3)cc2n1-c1ccnc2c(Cl)cccc12
q: // compare measured IC50, left 1 , right 2 , return larger // return label of chosen record
a: 1
(1: 51 nM, 2: 9 nM)

###

Observed IC50, system PI3Kβ (Homo sapiens (Human)).
assayEndpoint: IC50 (µM)

Cc1nc2c(C(=O)O)cc(-c3ccnc(N)c3F)cc2n1-c1ccnc2c(F)ccc(F)c12 [Example 4]    0.02
Cc1nc2c(-c3nnc[nH]3)cc(-c3ccnc(N)c3F)cc2n1-c1ccnc2c(F)ccc(F)c12 [Example 75]    0.003
Cc1nc2c(-c3nnc[nH]3)cc(-c3ccnc(N)c3)cc2n1-c1ccnc2cccc(F)c12 [Example 55]    0.019
Cc1cc(-c2cc(-c3nnc[nH]3)c3nc(C)n(-c4ccnc5c(F)ccc(F)c45)c3c2)cc(N)n1 [Example 90]    0.34
Cc1nc2c(C(N)=O)cc(-c3ncnc4[nH]cnc34)cc2n1-c1ccnc2c(Cl)cccc12 [Example 20]    1.1
Nc1nccc(-c2cc(-c3nnc[nH]3)c3nc(C4CC4)n(-c4ccnc5c(F)ccc(F)c45)c3c2)c1F [Example 81]    0.015
Cc1nc2c(-c3nnc[nH]3)cc(-c3ccnc(C#N)c3)cc2n1-c1ccnc2cc(F)cc(F)c12 (single isomer, unassigned) [Example 115]    0.003
Cc1nc2c(-c3nnc[nH]3)cc(-c3ccnc(C#N)c3)cc2n1-c1ccnc2c(Cl)cccc12 (single isomer, unassigned) [Example 129]    0.003

(I) Cc1nc2c(-c3nnc[nH]3)cc(-c3c(F)cnc(N)c3F)cc2n1-c1ccnc2c(F)ccc(F)c12 [Example 100]
(II) Cc1cc(-n2c(C)nc3c(C(N)=O)cc(-c4ccncc4)cc32)c2cccc(Cl)c2n1 [Example 7]
(III) Cc1nc2c(-c3nnc[nH]3)cc(-c3ccnc(C#N)c3)cc2n1-c1ccnc2c(Cl)ccc(Cl)c12 [Example 145]
(IV) Cc1c(-c2cc(-c3nnc[nH]3)c3nc(C)n(-c4ccnc5c(F)ccc(F)c45)c3c2)ccnc1F [Example 46]
(V) Nc1nccc(-c2cc(-c3nnc[nH]3)c3nc(C4CC4)n(-c4ccnc5c(Cl)ccc(F)c45)c3c2)c1F [Example 85]
q: List items by IC50 in falling order. Lab note: final answer is the ordered label list.
a: IV, I, II, V, III
